assay: Fe(II)-induced deoxyribose degradation assay; type: biochemical; settings: 80 µM, 2-deoxyribose 0.5 mM, 0.1 mM FeCl2; lower = stronger antioxidant
Measurement type: absorbance ratio, % of the controls (deoxyribose degradation)

{"Compound": "COc1ccc2[nH]c(C(=O)NN=Cc3cccc(O)c3O)cc2c1 [Compound 5a]", "Test value": "about 50%"}
{"Compound": "O=c1c(O)c(-c2ccc(O)c(O)c2)oc2cc(O)cc(O)c12 [quercetin, reference compound]", "Test value": "about 50%"}

* * *

Readings of log10 of IC50 at 24 h for the listed compounds
assay: MTT cell viability assay (cytotoxicity), bEnd3; assay type: cell-based, mouse; conditions: mouse, bEnd3 brain endothelial cells, 1–500 µM
Hello, just confirming the data are log10 of IC50 at 24 h with units of µM.

// solved cases for log10 of IC50 at 24 h follow
{"Mol smiles": "COc1ccc2[nH]c(C(=O)NN=Cc3ccc(O)c(O)c3)cc2c1", "log10 of IC50 at 24 h": 2.20}
{"Mol smiles": "COc1cc(C=NNC(=O)CCc2c[nH]c3ccccc23)ccc1O", "log10 of IC50 at 24 h": 2.56}
{"Mol smiles": "COc1ccc(C=NNC(=O)c2cc3cc(OC)ccc3[nH]2)c(O)c1", "log10 of IC50 at 24 h": 1.08}
{"Mol smiles": "COc1ccc2[nH]c(C(=O)NN=Cc3cc(OC)c(O)c(OC)c3)cc2c1", "log10 of IC50 at 24 h": 2.26}
{"Mol smiles": "COc1ccc2[nH]c(C(=O)NN=Cc3ccc(O)c(OC)c3)cc2c1", "log10 of IC50 at 24 h": 2.55}

Query block: Specify measured log10 of IC50 at 24 h for O=C(CCc1c[nH]c2ccccc12)NN=Cc1cccc(O)c1O .
Result block: 2.55
